Assay: basal RPMI8226 viability, no added stimulus, profiling panel, cell-based, calcein-AM fluorescence, 48 h, PK04 Diversity Set (AID 1166);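 note: cells grown under basal conditions without added stimulus; test concentration not given here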
Settings: RPMI8226 myeloma viability, higher = more signal
Mark Criterion met only when z-score stays strictly below -1. Values equal to the cut-off are Criterion not met.

Prompt line: For this compound, is z-score lower than -1? "C#CCN([C@H](/C=C/C1CC1)[C@@H](O)Cc1ccccc1)[C@@H](Cc1ccccc1)C(=O)OC"
Response line: Criterion met

Prompt line: Lab note: z-score threshold -1. Does this compound come in strictly under it? "COc1ccccc1CN1C(=O)c2ccccc2[C@@H](C(=O)NCCCN(C)C)[C@@H]1c1ccc(CO)cc1"
Response line: Criterion not met

Prompt line: Identify whether the compound CC(C)c1ccc(NN2C(C(O)C(C)C)C=CC3C(=O)N(c4ccccc4)C(=O)C32)cc1 (centres undefined) records z-score below -1.
Response line: Criterion not met

Prompt line: Field: below-cutoff. Rule: recorded z-score strictly less than -1. Subject: "CCCC[C@@H]1C[C@H]1[C@@H](NC(=O)c1ccc(C(F)(F)F)cc1)c1ccc(C(=O)OC)cc1"
Response line: Criterion met

Prompt line: For "[N-]=[N+]=NCc1ccccc1C[C@]1(C(=O)NCc2ccccc2)N=C(c2ccc(OCCCO)cc2)O[C@H]1c1ccccc1CN=[N+]=[N-]" , is the recorded z-score below the cut-off of -1?
Response line: Criterion met

Prompt line: Hello, I'm reviewing records and need to know if z-score of COc1ccc(C(O)C2C=CC3C(=O)N(C)C(=O)C3N2Nc2ccc([N+](=O)[O-])cc2[N+](=O)[O-])cc1OCc1ccccc1 (centres undefined) is below -1. Could you check?
Response line: Criterion not met

Prompt line: Is z-score of "COCCOC(=O)N1C(=O)[C@@]2(c3cc(C#CC4=CCCCC4)ccc31)[C@H](c1ccccc1OCCO)N1[C@H](c3ccccc3)[C@H](c3ccccc3)OC(=O)[C@H]1[C@@H]2C(N)=O" strictly below -1?
Response line: Criterion met

Prompt line: Record "C[C@]1(C(=O)NCC(F)(F)F)c2ccccc2C(=O)N(Cc2ccc(OC(F)(F)F)cc2)[C@H]1c1ccc(CO)cc1" : is its z-score strictly below -1?
Response line: Criterion met

Prompt line: Below -1 on z-score? Entry C=CCC(OC(C)=O)[C@@H]1[C@@H](N(Cc2ccc(-c3cccc(C(F)(F)F)c3)o2)C(=O)Cc2ccc(F)cc2)c2cc(OCCCO)ccc2N1C(=O)c1ccc2ccccc2c1 (some centres undefined)
Response line: Criterion not met

Prompt line: For C=CCC(OC(C)=O)[C@@H]1[C@@H](N(Cc2cc3ccccc3o2)C(=O)c2cccc3ccccc23)c2cc(OCCCO)ccc2N1C(=O)c1ccc2ccccc2c1 (some centres undefined) , is the recorded z-score below the cut-off of -1?
Response line: Criterion met

Prompt line: Report whether reported z-score is lower than -1 (strictly) for C=CCC(OC(C)=O)[C@@H]1[C@@H](N(Cc2cccc3ccccc23)C(=O)c2ccc(-c3ccccc3)cc2)c2cc(OCCCO)ccc2N1C(=O)c1ccc2ccccc2n1 (some centres undefined)
Response line: Criterion not met

Prompt line: Just wondering, is z-score of "COc1ccccc1CN1C(=O)c2ccccc2[C@](Cc2ccccc2I)(C(=O)NCCCN(C)C)[C@@H]1c1ccc(CO)cc1" below -1?
Response line: Criterion met

Prompt line: Does "C=CCNC(=O)[C@@H]1[C@H]2C(=O)O[C@H](c3ccccc3)[C@H](c3ccccc3)N2[C@H](c2ccccc2OCCO)[C@@]12C(=O)N(C(=O)OCCOC)c1ccc(C#CCCO)cc12" have z-score strictly under -1?
Response line: Criterion not met

Prompt line: hey, is z-score for "Cc1ccc(S[C@]2(C(=O)NC3CC3)CC(=O)N(Cc3cc(C(F)(F)F)cc(C(F)(F)F)c3)[C@@H]2c2ccc(CO)cc2I)cc1" lower than -1 or not?
Response line: Criterion met
